Procedure Summary: Half life in human liver microsomes at 0.2 mM after 30 mins in presence of NADPH by HPLC-MS/MS analysis
Format: ADME, Microsome

Structure: CCOC(=O)N1CC/C(=C\C#Cc2cccc(C)n2)C1
Unit Symbol: h
half-life at 200 µM: 12.8

----------
Target Or System: UniProt Q12809
Sequence (Q12809 whole entry): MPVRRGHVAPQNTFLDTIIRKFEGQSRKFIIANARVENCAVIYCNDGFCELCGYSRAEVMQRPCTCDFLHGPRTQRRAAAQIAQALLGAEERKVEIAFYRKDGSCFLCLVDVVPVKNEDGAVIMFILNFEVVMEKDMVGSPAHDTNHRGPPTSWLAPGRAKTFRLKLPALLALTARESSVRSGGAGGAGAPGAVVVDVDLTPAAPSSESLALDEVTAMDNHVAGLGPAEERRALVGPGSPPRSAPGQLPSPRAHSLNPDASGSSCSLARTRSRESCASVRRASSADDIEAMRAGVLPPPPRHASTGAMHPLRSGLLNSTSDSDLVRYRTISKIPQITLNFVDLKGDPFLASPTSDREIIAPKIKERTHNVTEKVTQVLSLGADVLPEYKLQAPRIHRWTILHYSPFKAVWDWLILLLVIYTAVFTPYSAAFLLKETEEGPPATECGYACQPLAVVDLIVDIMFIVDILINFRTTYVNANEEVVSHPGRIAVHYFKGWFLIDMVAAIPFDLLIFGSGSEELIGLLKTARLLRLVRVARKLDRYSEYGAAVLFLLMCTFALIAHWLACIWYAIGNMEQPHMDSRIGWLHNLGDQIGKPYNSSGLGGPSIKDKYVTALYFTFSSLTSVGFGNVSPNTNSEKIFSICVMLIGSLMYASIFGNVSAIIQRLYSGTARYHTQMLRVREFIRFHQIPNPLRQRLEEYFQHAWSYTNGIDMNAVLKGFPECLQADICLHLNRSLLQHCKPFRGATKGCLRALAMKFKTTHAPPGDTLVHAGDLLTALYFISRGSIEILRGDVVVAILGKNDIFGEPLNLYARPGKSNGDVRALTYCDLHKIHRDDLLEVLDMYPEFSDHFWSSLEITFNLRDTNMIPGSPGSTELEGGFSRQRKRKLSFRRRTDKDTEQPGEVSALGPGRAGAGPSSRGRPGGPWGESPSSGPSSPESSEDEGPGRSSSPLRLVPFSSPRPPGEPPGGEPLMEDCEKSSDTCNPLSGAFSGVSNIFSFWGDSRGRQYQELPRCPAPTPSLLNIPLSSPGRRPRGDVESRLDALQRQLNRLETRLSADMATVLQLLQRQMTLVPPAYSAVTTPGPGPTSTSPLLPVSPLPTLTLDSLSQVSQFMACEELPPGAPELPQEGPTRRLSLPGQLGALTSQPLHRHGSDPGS
Procedure Summary: Inhibition of human ERG

Structure: CCOC(=O)N1CC/C(=C\C#Cc2cccc(C)n2)C1
IC50: > 30 µM

----------
Procedure Summary: Tmax in dog at 3 mg/kg, po administered as single dose by LC/MS/MS analysis
Type: ADME, organism-based, Canis lupus familiaris
Condition Details: in vivo

Structure: CCOC(=O)N1CC/C(=C\C#Cc2cccc(C)n2)C1
Tmax (min): 15
